Recorded pIC50 for the following molecules
Target: HIV protease (Human immunodeficiency virus type 1 group M subtype B)
Construct: made in house; host or cells: Escherichia coli
Experiment: Assay for Inhibition of Synthetic Viral Protease (HPLC of peptide substrate cleavage products)
Assay type: biochemical
Conditions: synthetic protease (residues 69-167 of the pol open reading frame), substrate Val-Ser-Gln-Asn-Tyr-Pro-Ile-Val 2 mg/mL, 50 mM Na acetate, pH 5.5, 30 C, 1 hour; read-out: ICso
Protocol: Assay for Inhibition of Synthetic Viral Protease Inhibition studies of the reaction of the synthetic protease [amino acid residues 69-167 of the pol open reading frame in Ratner, L. et al, Nature, 313, 277 (1985) and synthesized by Merrifield solid-phase synthesis] with a peptide substrate[Val-Ser-Gln-Asn-Tyr-Pro-Ile-Val, 2 mg/mL when the reaction is initiated) were in 50 mM Na acetate, pH 5.5, at 30 C for 1 hour. […]
pIC50: −log10 of the molar value.
Parameter: pIC50

* CC(C)(C)OC(=O)N[C@@H](Cc1ccccc1)[C@@H](O)C[C@@H](Cc1ccccc1)C(=O)NCc1ccccc1 [Compound III] | ~7.30
* CC(C)C[C@H](NC(=O)[C@H](Cc1ccccc1)C[C@H](O)[C@H](Cc1ccccc1)NC(=O)OC(C)(C)C)C(=O)N[C@@H](Cc1ccccc1)C(N)=O [Compound I] | ~8.70
* CC(C)C[C@H](NC(=O)[C@H](Cc1ccccc1)C[C@H](O)[C@H](CC1CCCCC1)NC(=O)OC(C)(C)C)C(=O)N[C@@H](Cc1ccccc1)C(N)=O [Compound IV] | ~7.57
